Value source: patent US20120172295A1

molecular target: glucagon receptor (UniProt P47871 26-477, limits assumed); assay: cell-based or functional assay
Sequence (P47871 26-477 limits assumed): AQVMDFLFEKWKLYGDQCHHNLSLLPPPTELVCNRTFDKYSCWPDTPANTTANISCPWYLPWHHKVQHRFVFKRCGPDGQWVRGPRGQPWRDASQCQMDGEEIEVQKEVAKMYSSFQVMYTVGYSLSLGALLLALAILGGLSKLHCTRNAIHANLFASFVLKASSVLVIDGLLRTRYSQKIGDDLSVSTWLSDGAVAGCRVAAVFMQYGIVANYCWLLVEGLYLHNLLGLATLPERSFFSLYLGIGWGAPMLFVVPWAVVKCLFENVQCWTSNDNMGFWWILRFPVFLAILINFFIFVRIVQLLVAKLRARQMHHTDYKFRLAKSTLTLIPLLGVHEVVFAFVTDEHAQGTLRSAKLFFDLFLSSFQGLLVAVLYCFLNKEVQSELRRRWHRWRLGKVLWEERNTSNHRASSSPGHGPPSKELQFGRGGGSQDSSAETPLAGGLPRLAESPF
Non-standard residues stand in square brackets, D forms with d. No end group written: not given here. *: point of attachment. Palmitoyl = CCCCCCCCCCCCCCCC(=O)*; Aib = CC(C)(N)C(=O)O
Collected EC50 values appear next to each entry.
Give just the numeric value; nM need not be written.

1. HXQGTFTSDKSKYLDERRAKDFVQWLMNT (d-Ser at 2; Lys 10-C16 acyl; C-terminal amide) [dS2, E16/K20, K10(C16) Gluc Amide] : 0.076
2. H[Aib]QGTFTSDK(Palmitoyl)SKYLD[Aib]RRAQDFVQWLMNT-NH2 [AIB2, AIB16, K10(C16) Gluc Amide (SEQ ID NO: 611)] : 0.02

Could you now look at the following binder, please?
What value of EC50 has been recorded for this entry: HXQGTFTSDKSKYLDERRAKDFVQWLMNT (d-Ser at 2; Lys 10-C14 acyl; C-terminal amide) [dS2, E16/K20, K10(C14) Gluc Amide] 0.155
